# Tested on: TK-10 renal
# PROTOCOL_DETAILS: NCI tumour cell line growth inhibition, 48 h
EXPERIMENTAL_ENDPOINT: TGI

                                   compound    result
0  CN(C(=O)C12C3C4C1C1C4(C(=O)C45C6C7C4C4C5C6C74C)C3C12C)C(C)(C)C (stereo not given)  > 100 µM
1    Cc1ccc2c(=O)c3cccc(CC(=O)O)c3[nH]c2c1C  > 100 µM
2  CCc1c(C#N)c(S[C@@H](C(N)=O)c2ccccc2)nc(N(C)C)c1C#N   80.4 µM
3  COc1ccc(C(=O)Cc2c(C(=O)c3ccccc3)c3ccccc3n2C(=O)c2ccccc2)cc1  > 100 µM
4  O=C(NC(CS)C(=O)O)c1cccc2c(=O)c3ccccc3[nH]c12 (stereo not given)  > 100 µM
